assaySystem: Beta-hexosaminidase subunit beta (Homo sapiens, UniProt P07686)
Sequence (P07686 whole entry): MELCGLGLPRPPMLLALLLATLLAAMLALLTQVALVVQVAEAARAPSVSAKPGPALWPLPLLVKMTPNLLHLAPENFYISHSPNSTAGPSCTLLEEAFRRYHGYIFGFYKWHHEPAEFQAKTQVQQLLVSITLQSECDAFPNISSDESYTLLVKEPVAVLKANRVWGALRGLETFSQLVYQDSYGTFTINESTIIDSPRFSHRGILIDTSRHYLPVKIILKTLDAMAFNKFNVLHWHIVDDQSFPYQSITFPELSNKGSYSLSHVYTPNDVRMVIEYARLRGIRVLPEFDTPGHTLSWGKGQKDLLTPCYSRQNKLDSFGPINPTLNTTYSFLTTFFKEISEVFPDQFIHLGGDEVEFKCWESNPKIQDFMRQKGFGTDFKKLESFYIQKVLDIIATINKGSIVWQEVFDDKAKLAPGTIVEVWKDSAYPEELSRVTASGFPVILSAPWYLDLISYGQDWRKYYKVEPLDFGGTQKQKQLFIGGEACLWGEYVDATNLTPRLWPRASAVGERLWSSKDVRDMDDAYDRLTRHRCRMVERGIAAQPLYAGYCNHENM
assayComment: Competitive inhibition of human beta-N-acetyl-D-hexosaminidase-B using 4-Methylumbelliferyl N-acetyl-beta-D-glucosaminide as substrate assessed as release of 4-Methylumbelliferyl fluorophore measured for 7 mins
measuredProperty: pIC50
Quick note: pIC50 values are minus log10 of concentrations in mol/L.

Query: May I ask what pIC50 has been recorded for `O=C1c2cccc3cccc(c23)C(=O)N1CCNCCN1C(=O)c2cccc3cccc(c23)C1=O` ?
Reply: 5.51

---

assaySystem: Beta-hexosaminidase subunit alpha (Homo sapiens)
Sequence (P06865 whole entry): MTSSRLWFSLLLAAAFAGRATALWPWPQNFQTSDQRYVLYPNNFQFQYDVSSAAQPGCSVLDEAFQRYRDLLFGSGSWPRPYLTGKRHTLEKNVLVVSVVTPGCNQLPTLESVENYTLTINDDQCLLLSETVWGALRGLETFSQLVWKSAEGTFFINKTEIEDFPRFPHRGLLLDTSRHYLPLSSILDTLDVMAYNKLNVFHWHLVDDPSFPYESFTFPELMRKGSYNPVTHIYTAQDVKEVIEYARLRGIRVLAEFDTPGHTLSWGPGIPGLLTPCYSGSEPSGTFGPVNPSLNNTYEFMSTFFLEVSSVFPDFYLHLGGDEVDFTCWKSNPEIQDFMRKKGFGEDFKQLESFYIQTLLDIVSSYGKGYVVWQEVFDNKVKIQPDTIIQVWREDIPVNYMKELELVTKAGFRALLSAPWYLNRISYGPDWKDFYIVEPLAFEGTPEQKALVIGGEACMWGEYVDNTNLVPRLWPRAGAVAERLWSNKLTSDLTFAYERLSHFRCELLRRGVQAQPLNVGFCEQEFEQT
assayComment: Competitive inhibition of human beta-N-acetyl-D-hexosaminidase-A using 4-Methylumbelliferyl N-acetyl-beta-D-glucosaminide as substrate assessed as release of 4-Methylumbelliferyl fluorophore measured for 7 mins
measuredProperty: IC50 (µM)
Answer format: numeric, µM implied, no suffix.

Query: May I ask what IC50 has been recorded for `O=C1c2cccc3cccc(c23)C(=O)N1CCNCCN1C(=O)c2cccc3cccc(c23)C1=O` ?
Reply: 6
